Reference source: ChEMBL document CHEMBL3988442

- measured target: Proteasome subunit beta (Trypanosoma cruzi) (UniProt O96673)
- Sequence (O96673 as listed by the source): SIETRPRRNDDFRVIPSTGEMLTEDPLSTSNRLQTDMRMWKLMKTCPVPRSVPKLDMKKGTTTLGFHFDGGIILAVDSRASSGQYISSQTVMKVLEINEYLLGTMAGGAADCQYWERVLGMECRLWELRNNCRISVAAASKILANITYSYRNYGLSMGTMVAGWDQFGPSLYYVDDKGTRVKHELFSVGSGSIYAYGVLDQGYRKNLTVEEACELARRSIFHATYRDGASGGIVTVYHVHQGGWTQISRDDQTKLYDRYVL
- experiment: Trypanosoma cruzi proteasome chymotrypsin-like activity (TcProtChymo) assay.
- Assay type: functional
- Parameters: scale not given: in the data most compounds retested in dose-response had high values
- details: 9.37 µM
We use 9% as the dividing line for Percent Effect: on or above the line is true (1), below is false (0).

Use these answered entries as a reference point.
{"columns": ["molecule", "label value"],
 "data": [
  ["O=C(c1cccc(CNCC2CNc3ccnn3C2)c1)N1CCCC1 (stereo unspecified)", "true (1)"],
  ["CNS(=O)(=O)Cc1ccc(CNC(=O)c2ccc(C)[nH]c2=O)cc1", "false (0)"],
  ["COCc1ccccc1C(=O)N1CCCC(n2nc(C)cc2C)C1 (stereo unspecified)", "false (0)"],
  ["Cc1nc2n(n1)CC(Nc1cc(C(F)(F)F)nc3ncnn13)CC2 (stereo unspecified)", "true (1)"],
  ["O[C@H]1[C@H](n2cc(-c3ccccc3)nn2)c2ccccc2C12CCNCC2", "true (1)"],
  ["CCn1cc(CN2CCCn3nc(CCC(=O)NCCO)cc3C2)cn1", "true (1)"],
  ["CCC(=O)N1CCC(c2nnc(Cn3cccn3)n2C2CC2)CC1", "false (0)"],
  ["CCc1noc(C(C)N2CCC(C(=O)Nc3cnn(CC)c3)CC2)n1 (stereo unspecified)", "false (0)"]
]}

Problem: Can CC(C(=O)NCc1ccnc(Oc2ccc(F)cc2)c1)n1cncn1 (stereo unspecified) be said to have Percent Effect at or above 9%?
Result: true (1)

Problem: Can `COCCN(Cc1ccoc1)C(=O)c1cccnc1SC` be said to have Percent Effect at or above 9%?
Result: false (0)

Problem: Can CN1CCCC(c2cccc(Cc3ccccc3Cl)n2)C1 (stereo unspecified) be said to have Percent Effect at or above 9%?
Result: false (0)
